- System: Mus musculus
- assay_overview: Nephrotoxicity in ICR mouse assessed as pale tubular casts at 2.5 mg/kg, iv bid for 7 days measured after 2 hrs post last dose by hematoxylin and eosin staining based assay
- Assay type: toxicity, organism-based
- condition_notes: in vivo
Bridge positions count the residues as written; N and C are the ends. Square brackets hold non-standard residues; d marks the D form. Peptide text beside a SMILES is read from it. * marks the point of attachment. Heptanoyl(6-Me) = CC(C)CCCCC(=O)*; Dab = NCC[C@H](N)C(=O)O
metric_name: Activity

// below: answered molecules
1. CC(C)CCCCC(=O)N[C@@H](CCN)C(=O)N[C@H](C(=O)N[C@@H](CCN)C(=O)N[C@H]1CCNC(=O)[C@H]([C@@H](C)O)NC(=O)[C@H](CCN)NC(=O)[C@H](CCN)NC(=O)[C@H](CC(C)C)NC(=O)[C@@H](Cc2ccccc2)NC(=O)[C@H](CCN)NC1=O)[C@@H](C)O [POLYMYXIN B2] ({Heptanoyl(6-Me)}-[Dab]T[Dab][Dab][Dab][dF]L[Dab][Dab]T; lactam 4-C); Toxic
2. CC(C)CCCCC(=O)N[C@@H](CCN)C(=O)N[C@H](C(=O)N[C@@H](CCN)C(=O)N[C@H]1CCNC(=O)[C@H]([C@@H](C)O)NC(=O)[C@H](CCN)NC(=O)[C@H](CCN)NC(=O)[C@H]([C@@H](C)O)NC(=O)[C@@H](CC(C)C)NC(=O)[C@H](CCN)NC1=O)[C@@H](C)O; Non-Toxic
3. CC(C)CCCCC(=O)N[C@@H](CCN)C(=O)N[C@H](C(=O)N[C@H](CO)C(=O)N[C@H]1CCNC(=O)[C@H]([C@@H](C)O)NC(=O)[C@H](CCN)NC(=O)[C@H](CCN)NC(=O)[C@H]([C@@H](C)O)NC(=O)[C@@H](CC(C)C)NC(=O)[C@H](CCN)NC1=O)[C@@H](C)O ({Heptanoyl(6-Me)}-[Dab]T[dS][Dab][Dab][dL]T[Dab][Dab]T; lactam 4-C); Toxic
4. CC(C)CCCCC(=O)N[C@@H](CCN)C(=O)N[C@H](C(=O)N[C@@H](CCN)C(=O)N[C@H]1CCNC(=O)[C@H]([C@@H](C)O)NC(=O)[C@H](CCN)NC(=O)[C@H](CCN)NC(=O)[C@H](CC(C)C)NC(=O)[C@@H](CC(C)C)NC(=O)[C@H](CCN)NC1=O)[C@@H](C)O [COLISTIN B] ({Heptanoyl(6-Me)}-[Dab]T[Dab][Dab][Dab][dL]L[Dab][Dab]T; lactam 4-C); Non-Toxic

Challenge: I'd like to know its Activity. The molecule in question is CC(C)CCCCC(=O)N[C@@H](CCN)C(=O)N[C@H](C(=O)N[C@H](CO)C(=O)N[C@H]1CCNC(=O)[C@H]([C@@H](C)O)NC(=O)[C@H](CCN)NC(=O)[C@H](CCN)NC(=O)[C@H]([C@@H](C)O)NC(=O)[C@@H](Cc2ccccc2)NC(=O)[C@H](CCN)NC1=O)[C@@H](C)O ({Heptanoyl(6-Me)}-[Dab]T[dS][Dab][Dab][dF]T[Dab][Dab]T; lactam 4-C)
Response given: Non-Toxic

###

- Tested on: Escherichia coli
- assay_overview: Antibacterial activity against Escherichia coli ATCC 25922 after 18 hrs by agar dilution method
- Format: functional
- condition_notes: ATCC 25922, 18 h
Bridge positions count the residues as written; N and C are the ends. Square brackets hold non-standard residues; d marks the D form. Peptide text beside a SMILES is read from it. * marks the point of attachment. X1 = CC[C@H](C)CCCCC(=O)*; Dab = NCC[C@H](N)C(=O)O; Nva = CCC[C@H](N)C(=O)O
MIC for assorted molecules
Just the number in µg/mL, nothing appended.

1. CCC[C@@H]1NC(=O)[C@@H](CC(C)C)NC(=O)[C@H](CCN)NC(=O)[C@@H](NC(=O)[C@H](CCN)NC(=O)[C@@H](NC(=O)[C@H](CCN)NC(=O)CCCC[C@@H](C)CC)[C@@H](C)O)CCNC(=O)[C@H]([C@@H](C)O)NC(=O)[C@H](CCN)NC(=O)[C@H](CCN)NC1=O (X1-[Dab]T[Dab][Dab][Dab][dL][Nva][Dab][Dab]T; lactam 4-C); 1

Now consider the entry below.
Challenge: I'd like to know its MIC. The molecule in question is CC(C)CCCCC(=O)N[C@@H](CCN)C(=O)N[C@H](C(=O)N[C@@H](CCN)C(=O)N[C@H]1CCNC(=O)[C@H]([C@@H](C)O)NC(=O)[C@H](CCN)NC(=O)[C@H](CCN)NC(=O)[C@H]([C@@H](C)O)NC(=O)[C@@H](CC(C)C)NC(=O)[C@H](CCN)NC1=O)[C@@H](C)O
Response given: 0.5

Source listed as ChEMBL document CHEMBL4118103.
